Entries with reported MIC on Bacillus subtilis 168
Numeric answer only, unit µg/mL assumed.

compound | MIC / µg/mL
CN(C)CCCCN1C(=O)N(CCCCN(C)C)C(=O)C(CCCc2ccccc2)(CCCc2ccccc2)C1=O [MPM-4:2] | 16
CNCCCCN1C(=O)N(CCCCNC)C(=O)C(CCCc2ccccc2)(CCCc2ccccc2)C1=O [MPM-4:1] | 8
NCCCCCCN1C(=O)N(CCCCCCN)C(=O)C(CCCc2ccccc2)(CCCc2ccccc2)C1=O [MPM-6:0] | 2
NCCN1C(=O)N(CCN)C(=O)C(CCCc2ccccc2)(CCCc2ccccc2)C1=O [MPM-2:0] | 8
CN(C)CCCN1C(=O)N(CCCN(C)C)C(=O)C(CCCc2ccccc2)(CCCc2ccccc2)C1=O [MPM-3:2] | 16

Value wanted: MIC (Bacillus subtilis 168) of entry NCCCN1C(=O)N(CCCN)C(=O)C(CCCc2ccccc2)(CCCc2ccccc2)C1=O [MPM-3:0] 16

What is its MIC for Bacillus subtilis 168? Entry: CN(C)CCN1C(=O)N(CCN(C)C)C(=O)C(CCCc2ccccc2)(CCCc2ccccc2)C1=O [MPM-2:2] 32

Can you look up MIC on Bacillus subtilis 168 for NCCCCCN1C(=O)N(CCCCCN)C(=O)C(CCCc2ccccc2)(CCCc2ccccc2)C1=O [MPM-5:0] ? 4

* * *

- Tested on: UT-SCC-24B
- measurement_notes: High throughput drug screening (CellTiter-Glo, DSS)
- Assay type: cell-based, human
- cond: 72 h, 10-100,000 nM, myogel, non-irradiated
- Procedure: The MPMs were screened against a panel of […] different cell lines (HSC-3, UT-SCC-8, UT-SCC-24A, UT-SCC-24B, UT-SCC-42A, UT-SCC-42B and NOF) at the High Throughput Biomedicine Unit (HTB) at the Institute for Molecular Medicine Finland (FIMM). […] Next, the plates were centrifuged for 5 min at 1,000 rpm before the luminescence signal was measured with the PHERAstar FS HT reader (BMG LABTECH GmbH, Ortenberg, Germany). […]
observation_type: drug sensitivity score (DSS)
Number only, please.

compound | drug sensitivity score (DSS)
C[N+](C)(C)CCCCN1C(=O)N(CCCC[N+](C)(C)C)C(=O)C(CCCc2ccccc2)(CCCc2ccccc2)C1=O [MPM-4:3] | 0

# drug sensitivity score (DSS) lookup, item NCCCN1C(=O)N(CCCN)C(=O)C(CCCc2ccccc2)(CCCc2ccccc2)C1=O [MPM-3:0] 18

* * *

- System: UT-SCC-42A
- measurement_notes: High throughput drug screening (CellTiter-Glo, DSS)
- Format: cell-based, human
- cond: DSS irradiated (2 Gy) minus DSS non-irradiated, >5 synergy, <–5 antagonism
List of delta DSS (ΔDSS) values.

compound | delta DSS (ΔDSS)
CN(C)CCCN1C(=O)N(CCCN(C)C)C(=O)C(CCCc2ccccc2)(CCCc2ccccc2)C1=O | 0,6

# query: delta DSS (ΔDSS) of entry `NCCCN1C(=O)N(CCCN)C(=O)C(CCCc2ccccc2)(CCCc2ccccc2)C1=O` -1,1

Fill in: delta DSS (ΔDSS) of `NCCN1C(=O)N(CCN)C(=O)C(CCCc2ccccc2)(CCCc2ccccc2)C1=O` is ___ -0,7

GET /values?readout=delta DSS (ΔDSS)&item= `CN(C)CCN1C(=O)N(CCN(C)C)C(=O)C(CCCc2ccccc2)(CCCc2ccccc2)C1=O` 0,9
